Measured values drawn from PubChem BioAssay (NCATS) for this set.

Procedure Summary: AP1 Signaling Pathway (AID 357);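 further: ME-180 reporter cells stimulated with EGF at its EC50 level; on the % scale 0 is the no-effect control and ±100 the full control effect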
Experimental Setup: ME-180 (cervical carcinoma) AP-1-bla reporter, EGF-induced, beta-lactamase ratio, 5 h; at 17.2 µM (top of the series) unless noted
Records with an inconclusive call do not appear. Active and inactive are the calls of the source. The call rests on the fitted dose curve; in most records, active means well fitted curve in either direction with a large enough effect (not every such curve was filed as active); inconclusive means small, poorly fitted or top-dose-only effect, or another doubt; inactive means flat fitted curve, though single readings scatter.
Entries and their activity change, negative = inhibition values follow.

A selection of reference data follows.
CC(NC(=O)NCCCn1ccnc1)(C(F)(F)F)C(F)(F)F : 18.8% (inactive)
O=C(Nc1ccccc1C(=O)NCCCn1ccnc1)c1ccccc1 : 1.7% (inactive)
CCOc1cccc(N2C(=O)CC(N(CCc3ccc(OC)c(OC)c3)C(=O)CC)C2=O)c1 (stereo not given) : -28.7% (inactive)
Cc1ccccc1N1C(=O)C2ON(c3ccccc3)C(c3cccnc3)C2C1=O (stereo not given) : -2.7% (inactive)

Task: I'd like to know its activity change, negative = inhibition. The compound in question is `Nc1nnc(CSc2ccc(Cl)cc2)s1`
Result: 18.1% (inactive)
